Taken from the RNAGym collection of RNA variant scans (doi:10.1073/pnas.2313332121).

B1: TPR t1 (parent)
chain: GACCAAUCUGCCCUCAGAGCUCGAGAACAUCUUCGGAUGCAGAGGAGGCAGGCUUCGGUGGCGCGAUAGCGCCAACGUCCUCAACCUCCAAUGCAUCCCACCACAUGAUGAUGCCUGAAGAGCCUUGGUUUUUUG

variants of: B1; assay: polymerase ribozyme fitness, log enrichment relative to wild type (log ratio); higher = more active; in vitro selection for triplet polymerase activity
Experimental Readout: polymerase ribozyme fitness (log ratio)

>>> obs_value("A6G G36U C80U C88U G110C C124U")
-5.65
>>> obs_value("C31U A118U C123U")
-4.23
>>> obs_value("U32G A41G C70U C89G C114U")
-5.66
>>> obs_value("A43U A46G U106A")
-2.63
>>> obs_value("C72U C98U")
-1.53
>>> obs_value("G10C C72U A118G")
-1.84
>>> obs_value("A37U C80G")
-5.42
>>> obs_value("G120U C124U")
1.38
>>> obs_value("U9C A37C C94U G110A")
-1.17
>>> obs_value("G63U C114A G122U")
-3.44
>>> obs_value("A27U A84U")
-3.79
>>> obs_value("C11U C64U")
-0.331
>>> obs_value("C11G C124G")
1.42
>>> obs_value("C56U A90C G110A A111G U132A")
-0.678
>>> obs_value("A43U C94A")
-1.82
>>> obs_value("C53G C101A")
-1.03
>>> obs_value("A41G G71C U116G")
-3.99
>>> obs_value("C56A G128C")
-2.8
>>> obs_value("A2G G48U C53G C86U C98A C123G C124A")
-6.57
>>> obs_value("C8U A46G")
-0.00753
>>> obs_value("A37U G61U")
-0.28
>>> obs_value("G36U G39A C53A C94G C124G G127C")
-2.11
